The values you see were collected from patent US11919939B2.

- Tested on: aPLA (patient-derived anti-β2GP1 antibodies)
- procedure_summary: ELISA epitope mapping assay (aPLA binding to coated wells)
- Set-up: species or system human
- condition_context: wells coated with 10 μg/ml, aPLA from APS patients
reported_endpoint: aPLA binding to peptide- or domain-coated well

β-2-Glycoprotein 1 (protein, native β2GP1 purified from Human Plasma (Prospecbio)) GRTCPKPDDLPFSTVVPLKTFYEPGEEITYSCKPGYVSRGGMRKFICPLTGLWPINTLKCTPRVCPFAGILENGAVRYTTFEYPNTISFSCNTGFYLNGADSAKCTEEGKWSPELPVCAPIICPPPSIPTFATLRVYKPSAGNNSLYRDTAVFECLPQHAMFGNDTITCTTHGNWTKLPECREVKCPFPSRPDNGFVNYPAKPTLYYKDKATFGCHDGYSLDGPEEIECTKLGNWSAMPSCKASCKVPVKKATVVYQGERVKIQEKFKNGMLHGDKVSFFCKNKEKKCSYTEDAQCIDGTIEVPKCFKEHSSLAFWKTDASDVKPC :: binding of aPLA
reduced β2GP1: reduced β2GP1 exposing the cryptic epitope (protein) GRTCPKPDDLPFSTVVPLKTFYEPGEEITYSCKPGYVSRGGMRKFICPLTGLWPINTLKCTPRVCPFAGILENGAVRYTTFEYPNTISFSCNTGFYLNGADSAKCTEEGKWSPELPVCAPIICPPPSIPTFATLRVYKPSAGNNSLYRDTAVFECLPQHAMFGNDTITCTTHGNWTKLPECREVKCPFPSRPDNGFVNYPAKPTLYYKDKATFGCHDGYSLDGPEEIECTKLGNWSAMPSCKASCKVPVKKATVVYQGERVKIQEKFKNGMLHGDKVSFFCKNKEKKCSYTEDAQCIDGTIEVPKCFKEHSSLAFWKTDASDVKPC :: binding of aPLA
domain I-II: recombinant fusion protein of β2GP1 sushi domain I and II, SEQ ID NO:37 (protein, listed as Homo sapiens) MISPVLILFSSFLCHVAIAGRTCPKPDDLPFSTVVPLKTFYEPGEEITYSCKPGYVSRGGMRKFICPLTGLWPINTLKCTPRVCPFAGILENGAVRYTTFEYPNTISFSCNTGFYLNGADSAKCTEEGKWSPELPVCA :: binding of aPLA
